ASSAY: recombinant barcode read abundance after kanamycin selection (control-corrected) (log10(CPM+1)); higher = more efficient recombination; sequences stand for … in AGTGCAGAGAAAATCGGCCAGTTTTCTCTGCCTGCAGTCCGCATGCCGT…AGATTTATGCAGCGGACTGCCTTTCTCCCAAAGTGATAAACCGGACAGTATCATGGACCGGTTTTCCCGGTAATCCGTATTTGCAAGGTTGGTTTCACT; site = the 11-nt target;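 further: IS621 recombinase and bridge RNA in Escherichia coli cells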
recombinant barcode read abundance (log10) below 0.4 gives no; recombinant barcode read abundance (log10) at or above it gives yes.

Is it the case that AGGTGTCCTTGGGTTCTAACCTGTTGCTT (site AGGTGTCCTAA) has recombinant barcode read abundance (log10) reaching or exceeding 0.4?
yes

Is it the case that GACTGCCCTTGGGTTCTAACCTGTTGCGG (site GGCGGCCCTCC) has recombinant barcode read abundance (log10) reaching or exceeding 0.4?
no

Is it the case that CACCTGTCTTGGGTTCTAACCTGTTGCCG (site CACCTGTCTCG) has recombinant barcode read abundance (log10) reaching or exceeding 0.4?
yes

Is it the case that TTCCTGACTTGGGTTCTAACCTGTTGCCT (site CTCCTGCCTAG) has recombinant barcode read abundance (log10) reaching or exceeding 0.4?
no

Is it the case that CTCTAGTCTTGGGTTCTAACCTGTTGCAT (site CTCTAGTCTAG) has recombinant barcode read abundance (log10) reaching or exceeding 0.4?
no

Is it the case that GAATCGACTTGGGTTCTAACCTGTTGCCT (site GAATCGACTAG) has recombinant barcode read abundance (log10) reaching or exceeding 0.4?
yes

Is it the case that TAGAAGGCTTGGGTTCTAACCTGTTGCGT (site TAGAAGGCTAA) has recombinant barcode read abundance (log10) reaching or exceeding 0.4?
yes

Is it the case that AATCGCACTTGGGTTCTAACCTGTTGCCT (site AATACCACTAG) has recombinant barcode read abundance (log10) reaching or exceeding 0.4?
no

Is it the case that GAGCTACCTTGGGTTCTAACCTGTTGCCA (site GAGCTACCTGG) has recombinant barcode read abundance (log10) reaching or exceeding 0.4?
no

Is it the case that GTTCCAGCTTGGGTTCTAACCTGTTGCCT (site AGCAGCCCTCT) has recombinant barcode read abundance (log10) reaching or exceeding 0.4?
no

* * *

ASSAY: recombinant barcode read abundance after kanamycin selection (control-corrected) (log10(CPM+1)); higher = more efficient recombination; sequences stand for … in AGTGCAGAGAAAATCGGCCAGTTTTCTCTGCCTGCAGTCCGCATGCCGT…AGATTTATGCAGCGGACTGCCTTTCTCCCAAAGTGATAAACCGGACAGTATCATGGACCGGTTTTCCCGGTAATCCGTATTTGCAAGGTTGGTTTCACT; site = the 11-nt target
recombinant barcode read abundance (log10) below 0.06 gives rule not met; recombinant barcode read abundance (log10) at or above it gives rule met.

Is it the case that TTCGACTCTTGGGTTCTAACCTGTTGCTA (site TACGACTCTAA) has recombinant barcode read abundance (log10) reaching or exceeding 0.06?
rule met

Is it the case that CGCTAGACTTGGGTTCTAACCTGTTGCCT (site CGCTGGACTAG) has recombinant barcode read abundance (log10) reaching or exceeding 0.06?
rule met

Is it the case that CTCCGAACTTGGGTTCTAACCTGTTGCTT (site CTCCGTACTAT) has recombinant barcode read abundance (log10) reaching or exceeding 0.06?
rule not met

Is it the case that ATATGGACTTGGGTTCTAACCTGTTGCTA (site ATAAGGACTTA) has recombinant barcode read abundance (log10) reaching or exceeding 0.06?
rule met

Is it the case that CGCTAGACTTGGGTTCTAACCTGTTGCCT (site CGCTAGACTAG) has recombinant barcode read abundance (log10) reaching or exceeding 0.06?
rule met
